CONDITION_DESCRIPTION: buffer; pH 7.4; 200.0 µM
Kindly supply the reported solubility kinetic values for the records listed here.

Qu. Which solubility kinetic is reported for this compound? COc1cc(C(NC=O)C(=O)Nc2c(C)cccc2C)ccc1O (configuration not stated)
Ans. 45.4 µg/mL

Qu. Which solubility kinetic is reported for this compound? CN(Cc1c(F)cccc1Cl)C(=O)CNC(=O)c1cccs1
Ans. > 51.1 µg/mL

Qu. Which solubility kinetic is reported for this compound? OC(CN1CCN(c2cccc(Cl)c2)CC1)c1ccc(F)cc1 (configuration not stated)
Ans. 12.2 µg/mL

Qu. Which solubility kinetic is reported for this compound? C[N+](C)(C)Cc1ccccc1.[Cl-]
Ans. > 27.9 µg/mL

Qu. Which solubility kinetic is reported for this compound? NC(=O)C1Cc2ccccc2CN1S(=O)(=O)c1cccs1 (configuration not stated)
Ans. > 48.4 µg/mL

Qu. Which solubility kinetic is reported for this compound? COC(=O)CSc1nccc(-c2ccc(F)cc2)c1C#N
Ans. < 0.3 µg/mL

Qu. Which solubility kinetic is reported for this compound? O=C(Cc1ccc2ccccc2c1)Nc1ccccc1Br
Ans. < 0.7 µg/mL

Qu. Which solubility kinetic is reported for this compound? COC(=O)CNC(=O)/C=C/c1cc(Br)ccc1OC
Ans. 38.1 µg/mL

Qu. Which solubility kinetic is reported for this compound? O=S(=O)(c1cccs1)N1CCN(c2ccccc2F)CC1
Ans. 15.6 µg/mL

Qu. Which solubility kinetic is reported for this compound? CN(C(=O)c1ccco1)c1nc(-c2ccccc2)cs1
Ans. < 0.3 µg/mL

Qu. Which solubility kinetic is reported for this compound? O=C(NCC(=O)N1CCN(c2ccc([N+](=O)[O-])cc2)CC1)c1ccco1
Ans. 11.4 µg/mL

Qu. Which solubility kinetic is reported for this compound? CCOC(=O)c1cnc(-c2ccccc2)nc1Oc1ccc(OC)cc1
Ans. < 0.4 µg/mL

====

Kindly supply the reported log10(solubility kinetic) values for the records listed here.
CONDITION_DESCRIPTION: buffer; pH 7.4; 200.0 µM
Field: value | Transform: log10 | Quantity: solubility kinetic | Unit: µg/mL

Qu. Which log10(solubility kinetic) is reported for this compound? O=C(COC(=O)c1ccc(F)cc1)Nc1ccc2c(c1)OCO2
Ans. 0.65

Qu. Which log10(solubility kinetic) is reported for this compound? CCC(=O)c1ccc(OCC(O)CNC2CCCC2)cc1 (centres undefined)
Ans. 1.55

Qu. Which log10(solubility kinetic) is reported for this compound? COc1ccc2c([N+](=O)[O-])c(Cl)[nH]c2c1
Ans. 1.51

Qu. Which log10(solubility kinetic) is reported for this compound? Br.O=[N+]([O-])c1ccc(CSC2=NCCN2)cc1
Ans. 1.64

Qu. Which log10(solubility kinetic) is reported for this compound? c1ccc(-c2csc(-c3ccncc3)n2)cc1
Ans. 1.39

Qu. Which log10(solubility kinetic) is reported for this compound? Cc1ncc([N+](=O)[O-])n1CCOC(=O)C12CC3CC(CC(C3)C1)C2
Ans. 0.72

Qu. Which log10(solubility kinetic) is reported for this compound? COc1ccc(CNC(=O)CSc2nccn(-c3ccc(F)c(F)c3)c2=O)cc1
Ans. 1.09

Qu. Which log10(solubility kinetic) is reported for this compound? COc1ccc(-c2noc(CN(Cc3nccn3C)C(C)C)n2)cc1
Ans. 1.66

Qu. Which log10(solubility kinetic) is reported for this compound? CCOc1ccc(NC(=O)COC(=O)CC2CCCCC2)cc1
Ans. 1.42

Qu. Which log10(solubility kinetic) is reported for this compound? CCOc1ccc(NC(=S)N2CCC(NC(=O)c3ccccc3)CC2)cc1
Ans. 0.62

Qu. Which log10(solubility kinetic) is reported for this compound? CC(C)c1ccc(NC(=O)CNCC(c2ccccc2)N(C)C)cc1 (centres undefined)
Ans. 1.52

Qu. Which log10(solubility kinetic) is reported for this compound? COC(=O)c1sc(NC(=O)COc2ccccc2C)nc1C
Ans. -0.22

Qu. Which log10(solubility kinetic) is reported for this compound? COc1ccc(C(=O)C[n+]2ccc3ccccc3c2C)cc1.[Br-]
Ans. 1.21

Qu. Which log10(solubility kinetic) is reported for this compound? CC(NC1CCN(Cc2ccccc2)CC1)c1ccc(F)cc1 (centres undefined)
Ans. 1.63

Qu. Which log10(solubility kinetic) is reported for this compound? Cc1cccc(N2C(=O)Cc3ccccc3C2=O)c1
Ans. 1.49

Reference for the values: PubChem BioAssay AID1996
